Target: pT7_6His-AlfaTag-HOXD13 (human, UniProt P35453 263-343)
Sequence (P35453 263-343): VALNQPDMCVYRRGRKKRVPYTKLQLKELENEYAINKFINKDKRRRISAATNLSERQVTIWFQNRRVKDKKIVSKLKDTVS
Assay: PADIT-seq
Conditions: dsDNA, one strand shown
Kindly supply the reported binding signal values for the records listed here.
Reply numerically in log2FC, unit not repeated.

In: Kindly indicate its recorded binding signal. Item: `CTCGAGGATATCAAGATCTGGCCTCGGCCTTTTACTAGGAACCTCTAGCTAGCCGACTCACTATAGGGATAATCGCCCTGAGCAAAGACC`
Out: 3.01

In: Annotate the sequence `CTCGAGGATATCAAGATCTGGCCTCGGCGGAATAAAAGGAACCTCTAGCTAGCCGACTCACTATAGGGATAATCGCCCTGAGCAAAGACC` with its measured binding signal.
Out: 0.87

In: Answer with reported binding signal of `CTCGAGGATATCAAGATCTGGCCTCGGCTCCCCACGCGGAACCTCTAGCTAGCCGACTCACTATAGGGATAATCGCCCTGAGCAAAGACC`
Out: -0.217

In: Specify binding signal for `CTCGAGGATATCAAGATCTGGCCTCGGCGTTTTACCCGGAACCTCTAGCTAGCCGACTCACTATAGGGATAATCGCCCTGAGCAAAGACC` and stop.
Out: -0.0427

In: Using known records, supply binding signal for `CTCGAGGATATCAAGATCTGGCCTCGGCCTTTTATCTGGAACCTCTAGCTAGCCGACTCACTATAGGGATAATCGCCCTGAGCAAAGACC`
Out: 0.811

In: Write down binding signal measured for item `CTCGAGGATATCAAGATCTGGCCTCGGCCTTTTATTCGGAACCTCTAGCTAGCCGACTCACTATAGGGATAATCGCCCTGAGCAAAGACC`
Out: 1.67

In: Consider the sequence `CTCGAGGATATCAAGATCTGGCCTCGGCTGCATAAAAGGAACCTCTAGCTAGCCGACTCACTATAGGGATAATCGCCCTGAGCAAAGACC` and give its recorded binding signal.
Out: 1.39

====

Biological target: pT7_6His-AlfaTag-HOXD13 (human, UniProt P35453 263-343)
Assay: PADIT-seq
Settings: dsDNA, one strand shown
Would you kindly list binding signal for each of these sequences?
// return numeric value only (unit: log2FC, not printed)

In: Determine its reported binding signal: `CTCGAGGATATCAAGATCTGGCCTCGGCCGCCCATTCGGAACCTCTAGCTAGCCGACTCACTATAGGGATAATCGCCCTGAGCAAAGACC`
Out: -0.894

In: Name the recorded binding signal of the sequence listed here: `CTCGAGGATATCAAGATCTGGCCTCGGCATTTTAGTGGGAACCTCTAGCTAGCCGACTCACTATAGGGATAATCGCCCTGAGCAAAGACC`
Out: 1.61

In: // Input: `CTCGAGGATATCAAGATCTGGCCTCGGCTTTTTATGGGGAACCTCTAGCTAGCCGACTCACTATAGGGATAATCGCCCTGAGCAAAGACC` . Output its binding signal only.
Out: 3.53

In: Read the entry `CTCGAGGATATCAAGATCTGGCCTCGGCCGCGTAAAAGGAACCTCTAGCTAGCCGACTCACTATAGGGATAATCGCCCTGAGCAAAGACC` and write its reported binding signal.
Out: 1.44

In: Input `CTCGAGGATATCAAGATCTGGCCTCGGCAGTCTAAAAGGAACCTCTAGCTAGCCGACTCACTATAGGGATAATCGCCCTGAGCAAAGACC` , output reported binding signal.
Out: -0.665

In: For the sequence `CTCGAGGATATCAAGATCTGGCCTCGGCGTAATAAAAGGAACCTCTAGCTAGCCGACTCACTATAGGGATAATCGCCCTGAGCAAAGACC` , give its reported binding signal.
Out: 2.86

In: Given `CTCGAGGATATCAAGATCTGGCCTCGGCATCCTAAAAGGAACCTCTAGCTAGCCGACTCACTATAGGGATAATCGCCCTGAGCAAAGACC` , respond with its binding signal.
Out: 0.337

In: Answer with the recorded binding signal for the sequence listed here: `CTCGAGGATATCAAGATCTGGCCTCGGCCGCTATCGCGGAACCTCTAGCTAGCCGACTCACTATAGGGATAATCGCCCTGAGCAAAGACC`
Out: -0.806

In: Please give the documented binding signal of `CTCGAGGATATCAAGATCTGGCCTCGGCAGTATAAAAGGAACCTCTAGCTAGCCGACTCACTATAGGGATAATCGCCCTGAGCAAAGACC`
Out: 1.92

In: Tell me measured binding signal for `CTCGAGGATATCAAGATCTGGCCTCGGCTTTTTAGACGGAACCTCTAGCTAGCCGACTCACTATAGGGATAATCGCCCTGAGCAAAGACC` please.
Out: -0.513

In: For the sequence `CTCGAGGATATCAAGATCTGGCCTCGGCCTTTTAAGGGGAACCTCTAGCTAGCCGACTCACTATAGGGATAATCGCCCTGAGCAAAGACC` , give its reported binding signal.
Out: 1.67

In: Return the recorded binding signal value; entry: `CTCGAGGATATCAAGATCTGGCCTCGGCTTTTTAGTAGGAACCTCTAGCTAGCCGACTCACTATAGGGATAATCGCCCTGAGCAAAGACC`
Out: 1.62

In: Provide binding signal value for the following sequence: `CTCGAGGATATCAAGATCTGGCCTCGGCAGTGTAAAAGGAACCTCTAGCTAGCCGACTCACTATAGGGATAATCGCCCTGAGCAAAGACC`
Out: 0.712

In: Give reported binding signal value for `CTCGAGGATATCAAGATCTGGCCTCGGCGTGTTAAAAGGAACCTCTAGCTAGCCGACTCACTATAGGGATAATCGCCCTGAGCAAAGACC`
Out: 1.46

====

Please provide measured binding signal for the entries that follow.
Biological target: pT7_6His-AlfaTag-HOXD13 (human, UniProt P35453 263-343)
Test: PADIT-seq
Details: dsDNA, one strand shown
The answer is to be given in log2FC; state only the numeric part.

In: Query binding signal for `CTCGAGGATATCAAGATCTGGCCTCGGCGATGTAAAAGGAACCTCTAGCTAGCCGACTCACTATAGGGATAATCGCCCTGAGCAAAGACC`
Out: 0.79

In: Assign binding signal to the following record: `CTCGAGGATATCAAGATCTGGCCTCGGCCTTTTAAAAGGAACCTCTAGCTAGCCGACTCACTATAGGGATAATCGCCCTGAGCAAAGACC`
Out: 2.5

In: Tell us which binding signal value is on record for `CTCGAGGATATCAAGATCTGGCCTCGGCGCGTGGAAGGGAACCTCTAGCTAGCCGACTCACTATAGGGATAATCGCCCTGAGCAAAGACC`
Out: -0.832

In: Output binding signal of `CTCGAGGATATCAAGATCTGGCCTCGGCCGCCCATTAGGAACCTCTAGCTAGCCGACTCACTATAGGGATAATCGCCCTGAGCAAAGACC`
Out: -0.218

====

Target: pT7_6His-AlfaTag-HOXD13 (human, UniProt P35453 263-343)
Assay: PADIT-seq
Conditions: dsDNA, one strand shown
Rule: t for binding signal not less than 1 log2FC, f for anything less.

In: Does `CTCGAGGATATCAAGATCTGGCCTCGGCGTTTTAATCGGAACCTCTAGCTAGCCGACTCACTATAGGGATAATCGCCCTGAGCAAAGACC` have a reported binding signal of at least 1 log2FC?
Out: f

In: Quick check: does `CTCGAGGATATCAAGATCTGGCCTCGGCGCACTAAAAGGAACCTCTAGCTAGCCGACTCACTATAGGGATAATCGCCCTGAGCAAAGACC` have binding signal greater than or equal to 1 log2FC?
Out: f

In: Dear colleague, could you confirm whether `CTCGAGGATATCAAGATCTGGCCTCGGCATTTTAAACGGAACCTCTAGCTAGCCGACTCACTATAGGGATAATCGCCCTGAGCAAAGACC` has binding signal at or above 1 log2FC?
Out: t

In: Exam item: decide whether the reported binding signal for `CTCGAGGATATCAAGATCTGGCCTCGGCCTTTTATCAGGAACCTCTAGCTAGCCGACTCACTATAGGGATAATCGCCCTGAGCAAAGACC` is at least 1 log2FC.
Out: t

In: hey, is binding signal for this one >= 1 log2FC? `CTCGAGGATATCAAGATCTGGCCTCGGCTCGTTAAAAGGAACCTCTAGCTAGCCGACTCACTATAGGGATAATCGCCCTGAGCAAAGACC`
Out: t

In: Is binding signal for `CTCGAGGATATCAAGATCTGGCCTCGGCGTTTTATTTGGAACCTCTAGCTAGCCGACTCACTATAGGGATAATCGCCCTGAGCAAAGACC` at or above 1 log2FC?
Out: t

In: Does `CTCGAGGATATCAAGATCTGGCCTCGGCCGCCCAGGCGGAACCTCTAGCTAGCCGACTCACTATAGGGATAATCGCCCTGAGCAAAGACC` have a reported binding signal of at least 1 log2FC?
Out: f

In: For this sequence, is measured binding signal 1 log2FC or higher? `CTCGAGGATATCAAGATCTGGCCTCGGCGGTATAAAAGGAACCTCTAGCTAGCCGACTCACTATAGGGATAATCGCCCTGAGCAAAGACC`
Out: t

In: Given `CTCGAGGATATCAAGATCTGGCCTCGGCATTTTATAGGGAACCTCTAGCTAGCCGACTCACTATAGGGATAATCGCCCTGAGCAAAGACC` , state whether its binding signal is at least 1 log2FC.
Out: t

In: Could you verify whether the entry `CTCGAGGATATCAAGATCTGGCCTCGGCTATCCACGCGGAACCTCTAGCTAGCCGACTCACTATAGGGATAATCGCCCTGAGCAAAGACC` shows binding signal of no less than 1 log2FC?
Out: f

In: Could you please find out whether `CTCGAGGATATCAAGATCTGGCCTCGGCAGTTGGGCGGGAACCTCTAGCTAGCCGACTCACTATAGGGATAATCGCCCTGAGCAAAGACC` has binding signal that meets 1 log2FC or exceeds it?
Out: f

In: Decide: is the reported value of binding signal for `CTCGAGGATATCAAGATCTGGCCTCGGCTGCCTAAAAGGAACCTCTAGCTAGCCGACTCACTATAGGGATAATCGCCCTGAGCAAAGACC` equal to or greater than 1 log2FC?
Out: f

In: Dear colleague, could you confirm whether `CTCGAGGATATCAAGATCTGGCCTCGGCCTTCTAAAAGGAACCTCTAGCTAGCCGACTCACTATAGGGATAATCGCCCTGAGCAAAGACC` has binding signal at or above 1 log2FC?
Out: f

In: Has `CTCGAGGATATCAAGATCTGGCCTCGGCTTTTTATTTGGAACCTCTAGCTAGCCGACTCACTATAGGGATAATCGCCCTGAGCAAAGACC` a recorded binding signal greater than or equal to 1 log2FC?
Out: t
